assay_system: Microphthalmia-associated transcription factor (Homo sapiens) (UniProt O75030)
Sequence (O75030 whole entry, looked up): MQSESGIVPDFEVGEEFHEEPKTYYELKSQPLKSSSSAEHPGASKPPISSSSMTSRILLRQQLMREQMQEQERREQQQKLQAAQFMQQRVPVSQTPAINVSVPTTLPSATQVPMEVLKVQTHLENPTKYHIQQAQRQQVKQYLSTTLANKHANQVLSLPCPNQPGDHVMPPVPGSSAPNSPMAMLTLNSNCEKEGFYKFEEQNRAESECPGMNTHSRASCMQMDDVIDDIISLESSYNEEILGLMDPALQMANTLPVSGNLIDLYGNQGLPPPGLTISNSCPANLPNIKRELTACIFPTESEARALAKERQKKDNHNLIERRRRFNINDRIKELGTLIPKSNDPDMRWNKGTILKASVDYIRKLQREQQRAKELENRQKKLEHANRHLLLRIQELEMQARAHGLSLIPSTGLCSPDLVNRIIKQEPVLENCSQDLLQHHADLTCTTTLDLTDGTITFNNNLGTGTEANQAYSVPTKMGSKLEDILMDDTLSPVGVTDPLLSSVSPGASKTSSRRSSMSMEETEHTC
assay_overview: MITF inhibitors, primary screen, biochemical, AlphaScreen, human (AID 1259374);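 further: 0% = vehicle wells with protein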
condition_description: AlphaScreen MITF homodimerization, bead proximity signal; at 2.6 µM; active compounds read high
In all, about 650,000 compounds went through this assay and about 5,900 (0.91%) were called active. Many of the other results were omitted from the sample, so actives are more common in it than they were.
Tick fulfilled if inhibition is 30% or greater. Tick not fulfilled if inhibition is less than 30%.

Use these answered entries as a reference point.
Ask | Hi, just wondering whether "Cc1cc(OCCCN2CCN(Cc3ccccc3)CC2)ccc1[N+](=O)[O-]" shows inhibition of 30% or higher.
Reply | fulfilled

Ask | "CCOc1ccc(OCCCCNCCO)cc1" ?
Reply | fulfilled

Ask | Note, next up: "O=c1[nH]nc(SCc2ccc(Cl)cc2)c(=O)[nH]1"
Reply | not fulfilled

Ask | Try this molecule next: "OCCNCCCOc1ccc(I)cc1"
Reply | not fulfilled

Ask | // next record "COc1ccc(NC(=O)c2cc(S(=O)(=O)NCCc3ccccc3)ccc2F)cc1"
Reply | not fulfilled

Turning now to a further molecule:
Ask | Could you please find out whether "Cc1cc(S(=O)(=O)NC2CCCC2)ccc1-n1cnnn1" has inhibition that meets 30% or exceeds it?
Reply | not fulfilled

* * *

Overview of reported inhibition across a group of compounds:
assay_system: Microphthalmia-associated transcription factor (Homo sapiens) (UniProt O75030)
assay_overview: MITF inhibitors, primary screen, biochemical, AlphaScreen, human (AID 1259374);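 further: 0% = vehicle wells with protein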
condition_description: AlphaScreen MITF homodimerization, bead proximity signal; at 2.6 µM; active compounds read high
About 5,900 (0.91%) of roughly 650,000 compounds were called active. For the sample, actives were picked, then their nearest neighbours and some compounds at random.
The answer is to be given in %; state only the numeric part.

As a guide, the following entries are already answered.
Ask | // returns reported inhibition for input "CCCNCc1nc(-c2ccc(OC)c(OC)c2)no1"
Reply | 11.7

Ask | Repeat for the following compound: "Cc1ccc(C)c(NC(=O)CN(Cc2ccccc2)S(=O)(=O)c2ccc(Br)cc2)c1"
Reply | -9.84

Ask | // same read-out, input: COc1ccc(CN2CCN(CCCc3ccccc3)C(CCO)C2)cc1O (stereo unspecified)
Reply | 7.3

Ask | Check CCOC(=O)c1ccccc1NC(=O)C1CC(=O)N(c2ccc(Cl)c(Cl)c2)C1 (stereo unspecified) too.
Reply | -0.38

Ask | Query CCOC(=O)C1C2C=CC3(CN(c4ccc(C)cc4)C(=O)C13)O2 (stereo unspecified) next
Reply | 0.13

Next compound, please.
Ask | // query inhibition value for entry CCOc1cc(CN2CCN(Cc3cccc(OC)c3)C(CCO)C2)ccc1O (stereo unspecified)
Reply | -2.92

* * *

The reader will find reported inhibition values listed item by item below.
assay_system: Microphthalmia-associated transcription factor (Homo sapiens) (UniProt O75030)
assay_overview: MITF inhibitors, primary screen, biochemical, AlphaScreen, human (AID 1259374);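 further: 0% = vehicle wells with protein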
condition_description: AlphaScreen MITF homodimerization, bead proximity signal; at 2.6 µM; active compounds read high
Out of some 650,000 compounds screened, about 5,900 (0.91%) were called active. For the sample, actives were picked, then their nearest neighbours and some compounds at random.
Use % as the unit, but write only the number.

Consider the reported inhibition for these molecules:
Ask | Please give the measured inhibition for this molecule: "O=C(O)CCCCCNC(=O)/C(=C\c1ccco1)NC(=O)c1ccccc1"
Reply | 52.3

Ask | Next molecule up: "COc1ccc(Nc2cc(N3CCN(c4ncccn4)CC3)c3noc4c3c2C(=O)c2ccccc2-4)cc1"
Reply | 0.37

Next:
Ask | Return reported inhibition; argument: "CC(C)Nc1cc(N2CCC3(CC2)OCCO3)c2noc3c2c1C(=O)c1ccccc1-3"
Reply | 55.8

Ask | Ok, now "CN1CCN(c2cc(NCCCC(=O)O)c3c4c(onc24)-c2ccccc2C3=O)CC1"
Reply | 10.3

Ask | Again, but for "C/C(=N/NC(=O)Cc1cccs1)c1ccc(Br)cc1"
Reply | 7.44

Ask | Here is the next molecule: "CC(C)Nc1cc(N2CCN(c3ncccn3)CC2)c2noc3c2c1C(=O)c1ccccc1-3"
Reply | 5.09

Ask | Now consider "CN(C)c1cc(NCCN2CCC3(CC2)OCCO3)c2c3c(onc13)-c1ccccc1C2=O" and answer again.
Reply | 50.7

Ask | Next: O=C(Nc1ccc(C(=O)O)c(C(=O)O)c1)c1cccc(N2C(=O)c3ccc([N+](=O)[O-])cc3C2=O)c1 (tested in a mixture with another compound)
Reply | 11.7
